# assayed-target: recombinant human BCMA-his protein (Acro biosystems, Cat #BCA-H522Y) (human) (UniProt Q02223)
# Sequence (Q02223 1-54, stated change not applied): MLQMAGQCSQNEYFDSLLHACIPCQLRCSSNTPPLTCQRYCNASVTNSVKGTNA
# procedure-text: BLI Octet RED96, antibody on AHC sensor, BCMA-his in solution
reported-metric: Kd (pM)

binder	reported-metric	units	observed-result
huB1H2-V1 (antibody, human IgG1, kappa, V domains shown) VH: EVQLVQSGAEVKKPGSSVKVSCKASGYTLTNYVMHWMRQAPGQGLEWIGFIIPFNDGTKYNEHFKGRATLTSDKSTNTAYMELSSLRSEDTAVYYCARYDFEGYFDVWGAGTLVTVSS VL: DIQMTQSPSSLSASVGDRVTITCSASQDITNFLNWYQQKPGKTVKLLIYSTSRLHSGVPSRFSGSGSGTDYTFTISSLQPEDIATYYCQQYSNLPWTFGQGTKVEIKR	Kd	pM	1220
huB1H2-V3 (antibody, human IgG1, kappa, V domains shown) VH: QVQLVQSGAEVKKPGASVKVSCKASGYTLTNYVMHWMRQAPGQGLEWIGFIIPFNDGTKYNEHFKGRVTITRDTSISTAYMQLSSLRSEDTAVYYCARYDFEGYFDVWGQGTLVTVSS VL: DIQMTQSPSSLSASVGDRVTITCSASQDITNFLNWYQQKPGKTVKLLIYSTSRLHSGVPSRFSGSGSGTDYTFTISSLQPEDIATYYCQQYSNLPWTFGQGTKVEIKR	Kd	pM	731
chimeric B1H2 antibody (antibody, human IgG1, kappa, V domains shown, Mouse variable domains fused to human IgG1 / kappa constant regions, made in 293F cells) VH: EVQLQQSGPELVKPGASVKMSCKASGYTLTNYVMHWMKQKPGQGLEWIGFIIPFNDGTKYNEHFKGKATLTSDKSSNTAYMVLSSLTSEDSAVYYCARYDFEGYFDVWGAGTTVTVSS VL: DIQMTQTTSSLSASLGDRVTISCSASQDITNFLNWYQQKPDGTVKLLIYSTSRLHSGVPSRFSGSGSGTDYSLTISNLEPEDIATYYCQQYSNLPWTFGGGTNLEIKR	Kd	pM	673
